# maps each entry to its residual activity
biological target: TAOK3 (human); assay: radiometric filter-binding kinase assay, Kinase HotSpot; settings: compound 0.5 µM; ATP 10 µM

{"SMILES TEXT": "CC(C)n1cnc2c(Nc3cccc(Cl)c3)nc(NCCO)nc21", "ASSAYED SYSTEM": "TAOK3 (human)", "residual activity / %": 91.8}
{"SMILES TEXT": "O=c1cc(N2CCNCC2)oc2c(-c3ccccc3)cccc12", "ASSAYED SYSTEM": "TAOK3 (human)", "residual activity / %": 92.8}
{"SMILES TEXT": "Oc1ccc(-c2nc(-c3ccc(F)cc3)c(-c3ccncc3)[nH]2)cc1", "ASSAYED SYSTEM": "TAOK3 (human)", "residual activity / %": 103}
{"SMILES TEXT": "O=C1Nc2ccccc2/C1=C\\c1c(Cl)[nH]c2ccccc12", "ASSAYED SYSTEM": "TAOK3 (human)", "residual activity / %": 93.9}

====

Quick reference: residual activity of the listed items.
target: LCK (human) (UniProt P06239); test: radiometric filter-binding kinase assay, Kinase HotSpot; settings: compound 0.5 µM; ATP 10 µM
Sequence (P06239 whole entry, looked up): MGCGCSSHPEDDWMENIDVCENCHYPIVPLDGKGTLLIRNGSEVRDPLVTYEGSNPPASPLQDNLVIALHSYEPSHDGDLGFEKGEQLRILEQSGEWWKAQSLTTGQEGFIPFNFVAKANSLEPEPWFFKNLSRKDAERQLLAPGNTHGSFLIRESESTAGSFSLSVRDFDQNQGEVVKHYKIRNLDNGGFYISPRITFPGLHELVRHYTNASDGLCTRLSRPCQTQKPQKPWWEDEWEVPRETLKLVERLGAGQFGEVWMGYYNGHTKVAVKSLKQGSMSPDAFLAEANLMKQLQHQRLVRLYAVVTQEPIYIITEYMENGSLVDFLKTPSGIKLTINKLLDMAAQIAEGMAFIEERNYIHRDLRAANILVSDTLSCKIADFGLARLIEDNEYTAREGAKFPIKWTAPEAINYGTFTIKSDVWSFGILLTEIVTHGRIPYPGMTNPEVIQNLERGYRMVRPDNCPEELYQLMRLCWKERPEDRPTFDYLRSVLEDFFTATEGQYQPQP
REPORTED PROPERTY: residual activity (%)

{"COMPOUND": "Nc1nc(Nc2ccc(S(N)(=O)=O)cc2)nn1C(=O)c1c(F)cccc1F", "OBS VALUE": 87.9}
{"COMPOUND": "Oc1ccc(-c2nc(-c3ccc(F)cc3)c(-c3ccncc3)[nH]2)cc1", "OBS VALUE": 92.6}
{"COMPOUND": "O=C(NC(NC(=S)Nc1ccc(F)c([N+](=O)[O-])c1)C(Cl)(Cl)Cl)C(c1ccccc1)c1ccccc1 (stereo not drawn)", "OBS VALUE": 91.8}

====

molecular target: TAOK2 (human) (UniProt Q9UL54); assay: radiometric filter-binding kinase assay, Kinase HotSpot; details: compound 0.5 µM; ATP 10 µM
Sequence (Q9UL54 whole entry, looked up): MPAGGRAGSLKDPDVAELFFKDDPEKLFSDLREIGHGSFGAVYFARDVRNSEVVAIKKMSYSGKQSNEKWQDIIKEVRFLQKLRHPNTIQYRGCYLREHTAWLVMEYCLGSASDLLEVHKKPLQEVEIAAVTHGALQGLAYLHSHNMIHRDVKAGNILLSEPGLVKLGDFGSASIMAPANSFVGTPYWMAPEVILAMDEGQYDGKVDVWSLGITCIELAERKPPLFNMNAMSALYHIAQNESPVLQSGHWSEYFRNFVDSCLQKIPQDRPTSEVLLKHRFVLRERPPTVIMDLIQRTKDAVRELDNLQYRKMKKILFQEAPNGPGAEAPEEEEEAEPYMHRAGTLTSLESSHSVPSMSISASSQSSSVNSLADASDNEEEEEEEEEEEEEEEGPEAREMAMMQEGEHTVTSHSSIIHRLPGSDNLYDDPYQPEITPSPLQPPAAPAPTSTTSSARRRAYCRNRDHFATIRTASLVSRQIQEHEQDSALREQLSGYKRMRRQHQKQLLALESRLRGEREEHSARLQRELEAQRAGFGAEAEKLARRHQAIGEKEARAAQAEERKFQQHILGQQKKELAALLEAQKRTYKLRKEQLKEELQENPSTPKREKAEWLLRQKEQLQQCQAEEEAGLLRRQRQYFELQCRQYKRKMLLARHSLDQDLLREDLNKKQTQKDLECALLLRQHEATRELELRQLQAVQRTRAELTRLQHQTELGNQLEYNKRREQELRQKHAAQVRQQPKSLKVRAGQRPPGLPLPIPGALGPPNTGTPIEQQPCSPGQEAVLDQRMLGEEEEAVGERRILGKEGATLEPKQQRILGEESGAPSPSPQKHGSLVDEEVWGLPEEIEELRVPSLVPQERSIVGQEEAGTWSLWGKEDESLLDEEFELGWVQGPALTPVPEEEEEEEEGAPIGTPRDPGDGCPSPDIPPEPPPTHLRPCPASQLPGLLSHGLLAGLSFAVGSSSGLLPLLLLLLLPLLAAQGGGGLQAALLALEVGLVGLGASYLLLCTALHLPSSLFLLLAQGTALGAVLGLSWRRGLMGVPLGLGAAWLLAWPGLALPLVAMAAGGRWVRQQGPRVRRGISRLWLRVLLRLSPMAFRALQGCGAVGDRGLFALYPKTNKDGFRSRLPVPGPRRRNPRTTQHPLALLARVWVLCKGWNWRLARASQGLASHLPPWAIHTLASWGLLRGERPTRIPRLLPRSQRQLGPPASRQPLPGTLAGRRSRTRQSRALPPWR
REPORTED PROPERTY: residual activity (%)

{"COMPOUND": "COc1cc2ncnc(Nc3ccc(F)c(Cl)c3)c2cc1OCCCN1CCOCC1", "OBS VALUE": 106}
{"COMPOUND": "CSc1nc(-c2ccc(F)cc2)c(-c2ccnc(NC(C)c3ccccc3)c2)[nH]1 (stereo not drawn)", "OBS VALUE": 92.7}
{"COMPOUND": "Oc1ccc(-c2nc(-c3ccc(F)cc3)c(-c3ccncc3)[nH]2)cc1", "OBS VALUE": 94.7}
{"COMPOUND": "O=C1Nc2ccccc2/C1=C\\c1c(Cl)[nH]c2ccccc12", "OBS VALUE": 104}
{"COMPOUND": "Cc1cc2ncc(-c3ccccc3)nc2cc1C", "OBS VALUE": 105}
{"COMPOUND": "CCCNC(=O)Nc1ccc(Oc2ncnc3cc(OC)c(OC)cc23)cc1Cl", "OBS VALUE": 94.5}
{"COMPOUND": "O=C1Nc2cc(Br)ccc2/C1=C1/Nc2ccccc2/C1=N\\O", "OBS VALUE": 92.1}
{"COMPOUND": "O=C(Nc1ccc(Cl)cc1)c1ccccc1NCc1ccncc1", "OBS VALUE": 102}
{"COMPOUND": "O=c1cc(-c2cccc3c2Sc2ccccc2S3)oc(N2CCOCC2)c1", "OBS VALUE": 101}
{"COMPOUND": "Clc1ccc(Nc2nnc(Cc3ccncc3)c3ccccc23)cc1", "OBS VALUE": 85.4}
{"COMPOUND": "Nc1nc(Nc2ccc(S(N)(=O)=O)cc2)nn1C(=O)c1c(F)cccc1F", "OBS VALUE": 8.92}
{"COMPOUND": "COc1ccc(-c2cnc3c(-c4ccsc4)cnn3c2)cc1", "OBS VALUE": 97.4}
{"COMPOUND": "CC(C)n1cnc2c(Nc3cccc(Cl)c3)nc(NCCO)nc21", "OBS VALUE": 97.2}
